B1: FBXO34 (parent)
chain: ASSVESTLPVLEASSWKKQVSHDF

Variants of: B1
PROTOCOL NOTES: protein stability index of a GFP-peptide fusion (GPS, HEK-293T) (PSI 1-6); higher = more stable;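 further: lentivirally expressed fusions sorted by FACS into six bins by GFP to DsRed ratio, PSI derived from sequencing read proportions per bin multiplied by bin number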
APPLIED CONDITIONS: c terminus: a fixed tail appended
Is protein stability index at least 3? Then Fulfilled. If not, Not fulfilled.

QUERY: State whether the measured protein stability index reaches 3, counting equality as reaching it, for "D23L"
RESULT: Fulfilled

QUERY: State whether the measured protein stability index reaches 3, counting equality as reaching it, for "V20P"
RESULT: Fulfilled

QUERY: State whether the measured protein stability index reaches 3, counting equality as reaching it, for "E12K"
RESULT: Not fulfilled

QUERY: State whether the measured protein stability index reaches 3, counting equality as reaching it, for "A13R"
RESULT: Not fulfilled

QUERY: State whether the measured protein stability index reaches 3, counting equality as reaching it, for "K18M"
RESULT: Not fulfilled

QUERY: State whether the measured protein stability index reaches 3, counting equality as reaching it, for "D23S"
RESULT: Fulfilled

QUERY: State whether the measured protein stability index reaches 3, counting equality as reaching it, for "A13P"
RESULT: Fulfilled

QUERY: State whether the measured protein stability index reaches 3, counting equality as reaching it, for "T7C"
RESULT: Fulfilled

QUERY: State whether the measured protein stability index reaches 3, counting equality as reaching it, for "L8I"
RESULT: Not fulfilled

The reported measurements were obtained from the supplement of paper PMC10567573.
